test system: Escherichia coli TOP10; assay: shrunken log2 fold change of peptide-encoding DNA abundance (4.5 h post-induction vs induction); higher = less antimicrobial activity (less host growth inhibition); conditions: time post-induction: 4.5 h; library: site-saturation at positions 5, 18, 19, 20;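 also: peptides expressed intracellularly from a pBAD plasmid library in pooled LB shake-flask culture, induced with 0.3% L-arabinose, DNA abundance read by NGS, three biological replicates, DESeq2 with apeglm shrinkage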
So I've got a bunch of sequences here, and I need their shrunken log2 fold change values.
Answers are plain numbers.

Study these solved cases before continuing.
sequenceString: RRIRIRPPRLPRPRPRPIMQPRP
shrunken log2 fold change: -0.557
--
sequenceString: RRIRTRPPRLPRPRPRPPRHPRP
shrunken log2 fold change: 0.152
--
sequenceString: RRIRCRPPRLPRPRPRPFLSPRP
shrunken log2 fold change: -0.28
--
sequenceString: RRIRDRPPRLPRPRPRPSCNPRP
shrunken log2 fold change: -0.493

Report shrunken log2 fold change for every entry below.
1. RRIRGRPPRLPRPRPRPFPKPRP
2. RRIRCRPPRLPRPRPRPQKGPRP
3. RRIRFRPPRLPRPRPRPSKKPRP
4. RRIRCRPPRLPRPRPRPNTNPRP
5. RRIRSRPPRLPRPRPRPCPWPRP
6. RRIRERPPRLPRPRPRPWYLPRP

1: 0.0687; 2: -0.133; 3: 0.0524; 4: -0.66; 5: -0.115; 6: 0.0355

Hey, can you go through the list below and give me shrunken log2 fold change for every item?
1. RRIRCRPPRLPRPRPRPWNFPRP
2. RRIRWRPPRLPRPRPRPTVYPRP
3. RRIRMRPPRLPRPRPRPPTRPRP
4. RRIRMRPPRLPRPRPRPPEHPRP
5. RRIRGRPPRLPRPRPRPPSIPRP

[-0.182, 0.116, 1.25, 0.353, 0.519]
